Target: human mGluR5a receptors (Homo sapiens (Human), UniProt P41594)
Sequence (P41594 other isoform, or with tags, fused parts or gaps): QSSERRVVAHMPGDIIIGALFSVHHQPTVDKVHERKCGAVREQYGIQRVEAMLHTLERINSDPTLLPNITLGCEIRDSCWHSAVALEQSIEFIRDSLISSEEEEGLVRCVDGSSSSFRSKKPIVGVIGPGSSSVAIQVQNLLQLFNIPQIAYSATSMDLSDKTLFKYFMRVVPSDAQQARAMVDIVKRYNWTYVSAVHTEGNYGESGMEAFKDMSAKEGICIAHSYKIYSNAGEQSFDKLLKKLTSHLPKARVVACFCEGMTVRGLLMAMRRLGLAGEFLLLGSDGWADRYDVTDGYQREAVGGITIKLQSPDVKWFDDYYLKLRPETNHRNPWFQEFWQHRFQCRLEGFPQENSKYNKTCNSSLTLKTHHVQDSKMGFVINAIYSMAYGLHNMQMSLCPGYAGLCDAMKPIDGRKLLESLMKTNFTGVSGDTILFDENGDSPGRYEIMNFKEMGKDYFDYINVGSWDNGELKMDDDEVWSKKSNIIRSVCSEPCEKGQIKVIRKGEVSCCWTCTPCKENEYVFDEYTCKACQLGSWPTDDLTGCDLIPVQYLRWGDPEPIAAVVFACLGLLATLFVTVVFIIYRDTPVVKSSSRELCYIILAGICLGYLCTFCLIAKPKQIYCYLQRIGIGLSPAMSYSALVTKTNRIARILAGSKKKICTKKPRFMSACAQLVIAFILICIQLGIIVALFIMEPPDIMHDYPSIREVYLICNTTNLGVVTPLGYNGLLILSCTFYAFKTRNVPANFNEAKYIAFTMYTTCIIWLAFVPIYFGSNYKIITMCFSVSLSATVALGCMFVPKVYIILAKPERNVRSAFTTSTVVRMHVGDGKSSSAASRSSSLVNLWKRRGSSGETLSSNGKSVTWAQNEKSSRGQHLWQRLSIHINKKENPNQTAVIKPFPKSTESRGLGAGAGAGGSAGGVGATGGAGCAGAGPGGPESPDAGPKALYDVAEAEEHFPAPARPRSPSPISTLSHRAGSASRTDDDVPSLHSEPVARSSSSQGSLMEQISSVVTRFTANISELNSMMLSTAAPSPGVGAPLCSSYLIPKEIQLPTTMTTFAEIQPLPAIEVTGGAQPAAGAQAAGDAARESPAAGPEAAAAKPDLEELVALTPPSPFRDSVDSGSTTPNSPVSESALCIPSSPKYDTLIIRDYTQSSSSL
Test: inhibition of glutamate-induced elevation of intracellular calcium in L(tk-) cells expressing human mGluR5a
Settings: glutamate-induced intracellular calcium elevation, L(tk-) cells expressing human mGluR5a; read-out: mGluR5 IC50
// map IC50 onto a label; ranges class A: < 20 nM; class B: ≥ 20 nM and < 100 nM; class C: ≥ 100 nM

State the band of COCc1ncn(C2=NCC(=O)N3CCc4c(cccc4C4CC4)C3=C2)n1
class A

Please classify: C=C(C)c1cccc2c1CCN1C(=O)CN=C(n3cnc(COC)c3)C=C21
class A

Please classify: COC1(c2cn(C3=NCC(=O)N4CCc5c(cccc5-c5ccc(F)nc5)C4=C3)cn2)CC1 [Example 106a]
class B

Lab log: O=C1CN=C(n2cnc(C3CC3)n2)C=C2c3cccc(-c4cnc(F)cn4)c3CCN12 — assign IC50 category
class A

Returns: class label. Input: COc1cccc2c1CCN1C(=O)CN=C(c3ccc(C)o3)C=C21
class B

Band for the recorded IC50 of O=C1CN=C(c2cccs2)C=C2c3cccc(C(F)(F)F)c3CCN12 ?
class C

Input CCOCc1cn(C2=NCC(=O)N3CCc4c(cccc4-c4nccs4)C3=C2)cn1 [Example 88j] ; output its category
class B

Where would COc1cccc2c1CCN1C(=O)CN=C(n3cnc(C(C)C)c3)C=C21 land among the classes by reported IC50?
class C

Which class does Cn1ccc(C2=NCC(=O)N3CCc4c(CO)cccc4C3=C2)n1 fall in?
class C

State the band of COc1cc(C2=NCC(=O)N3CCc4c(Cl)cccc4C3=C2)ccn1
class B

Using the reported IC50, which band applies to O=C1CN=C(n2cnc(C3CC3)c2)C=C2c3cccc(-c4cc[nH]n4)c3CCN12 [Example 99e] ?
class C

Which IC50 band matches O=C1CN=C(n2cnc(CCO)c2)C=C2c3cccc(C4CC4)c3CCN12 ?
class A

Category lookup for the compound COc1cccc2c1CCN1C(=O)CN=C(c3cnc4c(c3)OCCN4C)C=C21 [Example 36a]
class C

Given Cn1cnc(C2=NCC(=O)N3CCc4c(I)cccc4C3=C2)c1 , name the class its IC50 places it in.
class C

Hello team, could you let me know which band the following compound falls into: Cn1ccc(C2=NCC(=O)N3CCc4c(cccc4C(C)(C)O)C3=C2)n1
class C

Could you tell me which band Cn1cc(C2=NCC(=O)N3CCc4c(CO)cccc4C3=C2)cn1 belongs to?
class C

Textbook exercise: identify the category of the compound given here, Cc1ccc(C2=NCC(=O)N3CCc4c(cccc4N4CCOCC4)C3=C2)o1 , according to its measured value.
class B

Band for the recorded IC50 of Cc1ncc(-c2cccc3c2CCN2C(=O)CN=C(n4cnc(C5CC5)c4)C=C32)s1 [Example 88e] ?
class B

Hi, small favor: classify COc1cc(C2=NCC(=O)N3CCc4c(cccc4N4CCOCC4)C3=C2)ccn1 by its IC50 when you get a moment.
class B

Class (by measured IC50) for CCc1ncn(C2=NCC(=O)N3CCc4c(cccc4-c4ccc(F)nc4)C3=C2)n1
class A

Hello team, could you let me know which band the following compound falls into: CCc1cn(C2=NCC(=O)N3CCc4c(cccc4-c4ncco4)C3=C2)cn1
class B

Into which bin does this compound go? CCc1cn(C2=NCC(=O)N3CCc4c(cccc4C4(F)CCC4)C3=C2)cn1
class C

Determine which band this compound sits in: COc1cc(C2=NCC(=O)N3CCc4c(OC)cccc4C3=C2)ccn1
class B

Exercise: read the entry COc1cccc(C2=NCC(=O)N3CCc4c(cccc4C4CCCO4)C3=C2)c1 (centres unmarked) and state which class it falls under.
class A

For this compound, which bin applies? CCc1cccc2c1CCN1C(=O)CN=C(c3cccc(OC)c3)C=C21
class B
